# METHOD: Serum concentrations of ICI 182780 by radioimmunoassay (pharmacokinetics of monthly i.m. depot)
# Type: in vivo, human
# CONDITION_NOTES: human, serum, intramuscular, 250 mg, patient 5 (partial response), 250 mg; read-out: Cmax on entry
# Protocol: Bridsh Journal of Cancer (1996) 74, 300-308 ? […] The agent was administered as a monthly depot intramuscular injection. […] The study was approved by the ethics committees of each clinical centre. […] Tumour response to therapy was evaluated according to UICC criteria (Hayward et al., 1977). […] Body weight was recorded at each monthly review in the majority of patients. […] The study limit of quantification was 0.68 ng ml-'. […] Prolactin was measured by immunoradiometric assay using reagents supplied by Netria. […]
METRIC_NAME: Cmax (ng/mL)
Provide the reading as a plain figure in ng/mL.

// Cmax value for C[C@]12CC[C@@H]3c4ccc(O)cc4C[C@@H](CCCCCCCCC[S+]([O-])CCCC(F)(F)C(F)(F)F)[C@H]3[C@@H]1CC[C@@H]2O (stereo partly shown) : 17.4

Value source: paper PMC2074590
